- TGT: Ubiquitin-activating enzyme e1, putative (Leishmania donovani (strain BPK282A1))
- TEST_PROTOCOL: Leishmania donovani Ubiquitin Activating Enzyme (LdE1)
- Assay type: functional
- Set-up: scale not given: direction of the effect not stated beside the values
- EXPERIMENTAL_CONDITIONS: 30 µM
Potency and affinity values are given separately.
METRIC_NAME: Percent Effect (%)

> print(dat)
                                    compound                                       tgt  unit.spec  numeric.readout
 1  O=C1NCC2(CCCN(Cc3ccc(Cl)s3)C2)Oc2ccccc21 (stereo not given)  Ubiquitin-activating enzyme e1, putative (Leishmania donovani (strain BPK282A1))          %               20
 2      Cc1nc(-c2ccccc2F)sc1C(=O)N1CCN(C)CC1  Ubiquitin-activating enzyme e1, putative (Leishmania donovani (strain BPK282A1))          %              2.7
 3  Cc1nn(C)c(C)c1C(C)NC(=O)Nc1cccnc1N1CCCC1 (stereo not given)  Ubiquitin-activating enzyme e1, putative (Leishmania donovani (strain BPK282A1))          %              2.7
 4  O=C(NCc1ccoc1)NC1CCCN(c2ncccn2)C1 (stereo not given)  Ubiquitin-activating enzyme e1, putative (Leishmania donovani (strain BPK282A1))          %             7.89
 5      Cc1nc(COC[C@@H]2CCC[C@@]23CNCCO3)cs1  Ubiquitin-activating enzyme e1, putative (Leishmania donovani (strain BPK282A1))          %             6.49
 6  CC(C)N1CCCC2(CCN(C(=O)CCCn3ccnc3)C2)C1=O (stereo not given)  Ubiquitin-activating enzyme e1, putative (Leishmania donovani (strain BPK282A1))          %              2.7
 7  COc1ccc(-c2noc(CNC(C)Cn3cccn3)n2)c(OC)c1 (stereo not given)  Ubiquitin-activating enzyme e1, putative (Leishmania donovani (strain BPK282A1))          %             31.6
 8  CCN1CC2(CC1=O)CN(Cc1cccs1)CCN(C(=O)C(C)C)C2 (stereo not given)  Ubiquitin-activating enzyme e1, putative (Leishmania donovani (strain BPK282A1))          %            -5.41
 9  CC(C)=CCN(C)C1CCCN(Cc2noc(C)n2)C1 (stereo not given)  Ubiquitin-activating enzyme e1, putative (Leishmania donovani (strain BPK282A1))          %             18.9
10  Cc1csc(Nc2cc(C3CCCCN3C)nc(C)n2)n1 (stereo not given)  Ubiquitin-activating enzyme e1, putative (Leishmania donovani (strain BPK282A1))          %                8
